Biological target: estrogen sulfotransferase (Sulfotransferase 1E1) (Homo sapiens, UniProt P49888)
Sequence (P49888 whole entry): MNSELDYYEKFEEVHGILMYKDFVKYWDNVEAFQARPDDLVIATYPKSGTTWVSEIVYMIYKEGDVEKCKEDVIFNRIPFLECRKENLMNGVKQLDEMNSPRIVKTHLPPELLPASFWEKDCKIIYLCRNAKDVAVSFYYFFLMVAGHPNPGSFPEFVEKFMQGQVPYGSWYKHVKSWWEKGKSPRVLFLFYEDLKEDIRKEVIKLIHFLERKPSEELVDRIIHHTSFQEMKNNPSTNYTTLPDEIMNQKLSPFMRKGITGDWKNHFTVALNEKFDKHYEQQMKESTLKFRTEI
Experiment: Inhibitory activity of compound was determined against human estrogen sulfotransferase at 100 uM
assay-endpoint: inhibition at 100 µM (%)
Please give a number only; it is taken to be in %.

Fill in the recorded inhibition at 100 µM for this molecule, with estrogen sulfotransferase (Sulfotransferase 1E1) (Homo sapiens, UniProt P49888) as test system: O=c1c(/C=N/OCCCCCO/N=C/c2cc(Br)cc([N+](=O)[O-])c2O)coc2c(Cl)cc(Cl)cc12
100

---

target: Sulfotransferase 1E1 (Homo sapiens); assay: Compound was tested for inhibition against estrogen sulfotransferase (EST), a human cytosolic sulfotransferase
assay-endpoint: pIC50
pIC50 here is simply -log10 of the concentration when that concentration is written in mol/L.

Fill in the recorded pIC50 for this compound, with Sulfotransferase 1E1 (Homo sapiens) as test system: O=c1c(/C=N/OCCCCCO/N=C/c2cc(Br)c(O)c(Br)c2)coc2c(Cl)cc(Cl)cc12
6.60

---

target: Protein-tyrosine sulfotransferase 2 (Homo sapiens, UniProt O60704); assay: Displacement of [35S]PAPS from human tyrosylprotein sulfotransferase-2 (hTPST-2); parameters: concentration or dose not given beside the values
assay-endpoint: Inhibition (%)
Please give a number only; it is taken to be in %.

Field: example entries. Status: answers known.
CO/N=C/c1cccc(F)c1O | 25
CO/N=C/c1coc2ccc(Br)cc2c1=O | 85

Fill in the recorded Inhibition for this compound, with Protein-tyrosine sulfotransferase 2 (Homo sapiens, UniProt O60704) as test system: CO/N=C/c1coc2cc(C)c(C)cc2c1=O
35

Fill in the recorded Inhibition for this compound, with Protein-tyrosine sulfotransferase 2 (Homo sapiens, UniProt O60704) as test system: CO/N=C/c1c(N)oc2ccccc2c1=O
45

Fill in the recorded Inhibition for this compound, with Protein-tyrosine sulfotransferase 2 (Homo sapiens, UniProt O60704) as test system: CO/N=C/C(=C/c1ccco1)c1ccccc1
55

Fill in the recorded Inhibition for this compound, with Protein-tyrosine sulfotransferase 2 (Homo sapiens, UniProt O60704) as test system: CO/N=C/c1cc(I)c(O)c(OC)c1
53

Fill in the recorded Inhibition for this compound, with Protein-tyrosine sulfotransferase 2 (Homo sapiens, UniProt O60704) as test system: CO/N=C/C(C)=C/c1ccco1
59

Fill in the recorded Inhibition for this compound, with Protein-tyrosine sulfotransferase 2 (Homo sapiens, UniProt O60704) as test system: CO/N=C/c1cc(OC)c(O)c(OC)c1
37

Fill in the recorded Inhibition for this compound, with Protein-tyrosine sulfotransferase 2 (Homo sapiens, UniProt O60704) as test system: CO/N=C/c1ccc([N+](=O)[O-])s1
65

Fill in the recorded Inhibition for this compound, with Protein-tyrosine sulfotransferase 2 (Homo sapiens, UniProt O60704) as test system: CO/N=C/c1c(O)ccc2ccccc12
34

---

For reference, IC50 measured on Protein-tyrosine sulfotransferase 2 (Homo sapiens):
Please give a number only; it is taken to be in µM.

CO/N=C/c1cc(Br)c(O)c(Br)c1 | 425

Please turn your attention to the following entry.
Name the reported IC50 value associated with the compound O=c1c(/C=N/OCCCCCO/N=C/c2cc(Br)cc([N+](=O)[O-])c2O)coc2c(Cl)cc(Cl)cc12
40

---

Target: Protein-tyrosine sulfotransferase 2 (Homo sapiens, UniProt O60704)
Sequence (O60704 whole entry): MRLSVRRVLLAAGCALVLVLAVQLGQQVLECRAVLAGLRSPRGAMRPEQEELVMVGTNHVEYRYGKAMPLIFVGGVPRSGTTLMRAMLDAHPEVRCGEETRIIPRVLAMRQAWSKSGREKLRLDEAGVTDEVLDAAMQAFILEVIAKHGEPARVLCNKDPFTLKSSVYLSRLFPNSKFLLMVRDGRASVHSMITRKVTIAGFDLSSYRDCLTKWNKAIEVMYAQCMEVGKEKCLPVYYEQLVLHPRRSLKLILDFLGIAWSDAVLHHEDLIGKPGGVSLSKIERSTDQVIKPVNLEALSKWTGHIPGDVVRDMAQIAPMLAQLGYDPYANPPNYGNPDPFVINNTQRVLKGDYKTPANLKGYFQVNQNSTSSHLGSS
Assay: Displacement of [35S]PAPS from human tyrosylprotein sulfotransferase-2 (hTPST-2)
Set-up: concentration or dose not given beside the values
assay-endpoint: Inhibition (%)
Please give a number only; it is taken to be in %.

CO/N=C/c1cc(I)cc(I)c1O | 48

Name the reported Inhibition value associated with the compound CO/N=C/c1ccc(-c2cccc(Cl)c2)o1
50

Name the reported Inhibition value associated with the compound CO/N=C/C=C/c1ccc([N+](=O)[O-])o1
47

Name the reported Inhibition value associated with the compound CO/N=C/c1ccc(-c2ccc(Cl)cc2)o1
70

Name the reported Inhibition value associated with the compound CO/N=C/c1cc(C)cc(Br)c1O
31

src = ChEMBL document CHEMBL1135027
